In this section we review reported IC50 values for a set of compounds.
# test-system: JAK2 (Homo sapiens, UniProt O60674)
# Construct: host or cells: baculovirus expression system
# Sequence (O60674 whole entry): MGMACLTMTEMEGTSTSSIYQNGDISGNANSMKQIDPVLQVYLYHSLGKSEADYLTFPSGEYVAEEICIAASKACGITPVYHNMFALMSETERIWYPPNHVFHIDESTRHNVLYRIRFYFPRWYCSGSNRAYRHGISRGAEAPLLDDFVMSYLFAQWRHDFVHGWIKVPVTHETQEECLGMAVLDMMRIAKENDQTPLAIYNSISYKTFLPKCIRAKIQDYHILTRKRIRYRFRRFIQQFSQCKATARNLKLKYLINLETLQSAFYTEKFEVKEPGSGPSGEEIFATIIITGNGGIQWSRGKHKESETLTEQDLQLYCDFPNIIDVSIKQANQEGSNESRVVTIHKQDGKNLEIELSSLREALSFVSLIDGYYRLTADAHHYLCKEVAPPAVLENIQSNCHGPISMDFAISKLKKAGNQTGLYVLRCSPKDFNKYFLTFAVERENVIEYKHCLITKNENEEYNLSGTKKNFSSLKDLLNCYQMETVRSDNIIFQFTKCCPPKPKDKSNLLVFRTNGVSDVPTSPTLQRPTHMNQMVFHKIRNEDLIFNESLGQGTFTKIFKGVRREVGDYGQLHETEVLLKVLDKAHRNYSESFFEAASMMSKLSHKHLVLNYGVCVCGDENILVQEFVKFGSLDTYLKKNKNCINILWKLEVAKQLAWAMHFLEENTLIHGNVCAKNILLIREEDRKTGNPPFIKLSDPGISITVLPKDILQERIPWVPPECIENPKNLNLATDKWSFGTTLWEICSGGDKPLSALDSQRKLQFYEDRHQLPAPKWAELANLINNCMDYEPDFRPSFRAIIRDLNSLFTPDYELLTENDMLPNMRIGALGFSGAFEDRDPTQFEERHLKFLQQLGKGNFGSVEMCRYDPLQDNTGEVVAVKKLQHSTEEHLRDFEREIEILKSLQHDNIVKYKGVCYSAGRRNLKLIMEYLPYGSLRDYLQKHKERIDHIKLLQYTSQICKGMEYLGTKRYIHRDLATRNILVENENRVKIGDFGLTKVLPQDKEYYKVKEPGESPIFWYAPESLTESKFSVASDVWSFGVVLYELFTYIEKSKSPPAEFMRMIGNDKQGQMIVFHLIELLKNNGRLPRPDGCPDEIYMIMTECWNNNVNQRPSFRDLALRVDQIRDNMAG
# run-description: Recombinant Human JAK2 Kinase Assay (TRF)
# Format: biochemical
# condition-summary: JAK2 kinase inhibition, 0.2 μM ATP; read-out: JAK2 Potency

Use these answered entries as a reference point.
COc1ccccc1-c1ccc2cnc(Nc3ccc(C4CCN(CC(N)=O)CC4)c(C)c3)nn12 | < 0.1 µM
COc1cc(C2CCCN(CC(N)=O)C2)ccc1Nc1ncc2ccc(-c3ccccc3N(C)S(C)(=O)=O)n2n1 (racemic) | 0.1 to 1 µM

Query: Returns the measured IC50 for the input compound. Input: CN1CCCC1COc1cc(Nc2ncc3ccc(-c4ccccc4N(C)S(C)(=O)=O)n3n2)ccc1Cl (stereo not shown)
Result: < 0.1 µM

Query: Returns the measured IC50 for the input compound. Input: COc1ccc(-c2ccc3cnc(Nc4ccc(C5CCN(CC(N)=O)CC5)c(C)c4)nn23)cn1
Result: < 0.1 µM
